meta.source: patent US11680073B2

tested on: HCT-116, a highly Ras-driven line expressing mutant Ras; experiment: Tumor cell growth inhibition, CellTiter-Glo ATP luminescence assay, HCT-116; format: cell-based, human; conditions: HCT-116, 72 h; human colon tumor cells, mutant Ras; 3-day treatment; ten-fold serial dilutions; read-out: micromolar IC50 for HCT-116
log10(IC50) overview
quantity_kind: log10(IC50) (log10 of the value in µM)

• COc1cc(/C=C2/C(C)=C(CNC(=O)Cc3cccnc3)c3cc(F)ccc32)cc(OC)c1O = -1.48
• COc1cc(/C=C2/C(C)=C(CNC(=O)c3cn[nH]c3)c3cc(F)ccc32)cc(OC)c1O = -0.38
• COc1cc(CC2c3ccc(F)cc3C(CC(=O)NCc3ccccc3)C2C)cc(OC)c1O (stereo not drawn) = -0.67
• COc1cc(/C=C2/C(C)=C(CC(=O)NCc3cccnc3)c3cc(F)ccc32)cc(OC)c1B1OC(C)(C)C(C)(C)O1 = 0.79
• COc1cc(/C=C2/C(C)=C(CNC(=O)c3ccco3)c3cc(F)ccc32)cc(OC)c1O = -0.52
• COc1cc(/C=C2/C(C)=C(CC(=O)NCc3cccnc3)c3cc(F)ccc32)cc(OC)c1B(O)O = 0.70
